src = patent US20250136568A1

- System: PI3Kα H1047R mutation cell line T-47D
- Test Description: Cell Proliferation IC50 Assay (CellTiter-Glo), T-47D
- Format: cell-based
- Cond: Homo sapiens; T47D (H1047R), 72 hours, CellTiter-Glo; read-out: IC50 (μM) T47D
Overview of recorded IC50 for various compounds
Express your answer in µM, writing the number without its unit.

Some solved cases for reference:
Compound	Property Name	Observed
Cc1cc([C@@H](C)Nc2ccccc2C(=O)O)c2oc(-c3ccc(CN4CCN(C)CC4)cc3)c(C)c(=O)c2c1	IC50	0.055
Cc1cc(C(C)Nc2ccccc2S(N)(=O)=O)c2oc(-c3ccc4nn(C)cc4c3)c(C)c(=O)c2c1 (stereo not shown)	IC50	0.055
Cc1cc([C@@H](C)Nc2ccccc2C(=O)O)c2oc(-c3ccc(OC4CCN(C)C4)cc3)c(C)c(=O)c2c1 (stereo partly shown)	IC50	0.065
CC(=O)N1CCN(c2ccc(-c3oc4c([C@@H](C)Nc5ccccc5C(=O)O)cc(C)cc4c(=O)c3C)nc2)CC1	IC50	0.074
Cc1cc([C@@H](C)Nc2ccccc2C(=O)O)c2oc(-c3ccc(-c4cn(C)cn4)nc3)c(C)c(=O)c2c1	IC50	0.12
Cc1cc(C(C)Nc2ccccc2C(=O)O)c2oc(-c3cc4cn(C)nc4cn3)cc(=O)c2c1 (stereo not shown)	IC50	0.38

Please turn your attention to the following entry.
Reported IC50 of Cc1cc([C@@H](C)Nc2ccccc2C(=O)O)c2oc(-c3ccc(C4CN(C)CCO4)cc3)c(C)c(=O)c2c1 (stereo partly shown) : 0.092

###

- Test Description: In vivo pharmacokinetics in mice
- Cond: male, CD1, mouse, plasma, oral, 5 mg/kg
Overview of recorded bioavailability for various molecules
Express your answer in %, writing the number without its unit.

Molecule	Observed
Cc1cc([C@@H](C)Nc2ccccc2C(=O)O)c2oc(-c3ccc4nn(C)cc4c3)cc(=O)c2c1 (single isomer, unassigned) [Example 38B]	45.5

Please turn your attention to the following entry.
Reported bioavailability of Cc1cc([C@@H](C)Nc2ccccc2C(=O)O)c2oc(-c3ccc(-c4cnn(C)c4)nc3)c(C)c(=O)c2c1 : 58.2

###

Overview of recorded IC50 for various molecules
- Test system: PI3Kα H1047R mutation cell line T-47D
- Test Description: Cell Proliferation IC50 Assay (CellTiter-Glo), T-47D
- Assay type: cell-based
- Cond: T47D (H1047R), 72 hours, CellTiter-Glo; read-out: IC50 (μM) T47D

Some solved cases for reference:
Molecule	Observed
Cc1cc([C@H](C)Nc2ccccc2C(=O)O)c2oc(-c3ccc4nn(C)cc4c3)cc(=O)c2c1 [Example 38A]	> 10 µM
C[C@H](Nc1ccccc1C(=O)O)c1cc(Cl)cc2c(=O)cc(-c3ccc4nn(C)cc4c3)oc12 (single isomer, unassigned) [Example 98A]	0.038 µM
C[C@@H](Nc1ccccc1C(=O)O)c1cc(Cl)cc2c(=O)cc(-c3ccc4nn(C)cc4c3)oc12 (single isomer, unassigned) [Example 98B]	> 10 µM
Cc1cc([C@@H](C)Nc2ccccc2C(=O)O)c2oc(-c3ccc(OCC4CCCN4C)cc3)c(C)c(=O)c2c1 (single isomer, unassigned) [Example 172B]	0.063 µM

Reported IC50 of Cc1cc([C@@H](C)Nc2ccccc2C(=O)O)c2oc(-c3ccc4nn(C)cc4c3)c(C)c(=O)c2c1 [Example 49A] : 0.07 µM
